half-life by entry:
# TEST NAME: Half life in rat at 1 mg/kg, iv
# Type: ADME, organism-based
# Design: dose 1 mg/kg, route intravenous
# REPORTED CONDITIONS: in vivo

stdin: For the compound shown here, O=C(NCc1ccc(S(=O)(=O)c2cc(F)cc(F)c2)cn1)c1cc2ccncc2o1 , give the reported half-life.
stdout: 60 min

stdin: Consider the compound CC(C)n1cc(S(=O)(=O)c2ccc(CNC(=O)c3cc4ccncc4o3)nc2)cn1 and give its measured half-life.
stdout: 138 min

stdin: Endpoint output: half-life of CC(C)CN1CCC([S@](=O)c2ccc(CNC(=O)c3cc4ccncc4o3)cc2)CC1 . Value?
stdout: 55.8 min

stdin: Name the recorded half-life for O=C(NCc1ccc([S@@](=O)c2cc(F)cc(F)c2)cn1)c1cc2ccncc2o1 .
stdout: 36 min

====

# TEST NAME: Oral bioavailability in rat at 5 mg/kg
# Format: ADME, organism-based
# REPORTED CONDITIONS: in vivo
VALUE TYPE: bioavailability (%)
Report only the number, with the unit % understood.

| SMILES REPRESENTATION | RESULT |
| --- | --- |
| CC(C)CN1CCC([S@](=O)c2ccc(CNC(=O)c3cc4ccncc4o3)cc2)CC1 | 31 |
| O=C(NCc1ccc(S(=O)(=O)c2cc(F)cc(F)c2)cn1)c1cc2ccncc2o1 | 61 |
| O=C(NCc1ccc([S@@](=O)c2cc(F)cc(F)c2)cn1)c1cc2ccncc2o1 | 62 |

stdin: # lookup: bioavailability of CC(C)n1cc(S(=O)(=O)c2ccc(CNC(=O)c3cc4ccncc4o3)nc2)cn1
stdout: 74

====

Cmax values by entry
# TEST NAME: Cmax in rat at 5 mg/kg, po
# Type: ADME, organism-based
# Parameters: dose 5 mg/kg, route oral
# REPORTED CONDITIONS: in vivo
Enter your answer as a number in nM; do not include the unit.

| SMILES REPRESENTATION | RESULT |
| --- | --- |
| CC(C)n1cc(S(=O)(=O)c2ccc(CNC(=O)c3cc4ccncc4o3)nc2)cn1 | 1500 |
| O=C(NCc1ccc(S(=O)(=O)c2cc(F)cc(F)c2)cn1)c1cc2ccncc2o1 | 1000 |
| O=C(NCc1ccc([S@@](=O)c2cc(F)cc(F)c2)cn1)c1cc2ccncc2o1 | 1000 |

Attention now turns to another entry.
stdin: State the recorded Cmax for this entry: CC(C)CN1CCC([S@](=O)c2ccc(CNC(=O)c3cc4ccncc4o3)cc2)CC1
stdout: 70

====

We begin with a simple list: items and their reported Vd.
# TEST NAME: Volume of distribution at steady state in rat at 1 mg/kg, iv
# Assay type: ADME, organism-based
# Parameters: dose 1 mg/kg, route intravenous
# REPORTED CONDITIONS: in vivo, read-out: Vdss
Field: numeric (L/kg). Do not append units.

Illustrative cases are given below, each with its answer.
| SMILES REPRESENTATION | Vd [L/kg] |
| --- | --- |
| O=C(NCc1ccc([S@@](=O)c2cc(F)cc(F)c2)cn1)c1cc2ccncc2o1 | 3 |
| CC(C)n1cc(S(=O)(=O)c2ccc(CNC(=O)c3cc4ccncc4o3)nc2)cn1 | 3.2 |
| O=C(NCc1ccc(S(=O)(=O)c2cc(F)cc(F)c2)cn1)c1cc2ccncc2o1 | 2 |

stdin: Entry under review: CC(C)CN1CCC([S@](=O)c2ccc(CNC(=O)c3cc4ccncc4o3)cc2)CC1 . Reported Vd?
stdout: 17
